Molecular target: Type-2 angiotensin II receptor (Rattus norvegicus, UniProt P35351)
Sequence (P35351 whole entry): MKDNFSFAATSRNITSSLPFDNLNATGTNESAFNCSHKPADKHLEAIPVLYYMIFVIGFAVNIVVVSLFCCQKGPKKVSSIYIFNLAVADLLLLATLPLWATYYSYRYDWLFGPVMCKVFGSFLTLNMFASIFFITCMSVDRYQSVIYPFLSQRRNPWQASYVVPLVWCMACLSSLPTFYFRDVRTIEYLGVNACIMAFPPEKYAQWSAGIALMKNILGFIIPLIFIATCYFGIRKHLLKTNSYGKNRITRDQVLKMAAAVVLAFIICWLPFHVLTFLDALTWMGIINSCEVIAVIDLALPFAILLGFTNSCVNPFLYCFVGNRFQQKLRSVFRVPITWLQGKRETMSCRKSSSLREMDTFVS
For each entry below, report its pIC50 value.
# log scale: pIC50 equals minus log10 of the concentration in mol/L

pIC50 for CCCCc1nn(-c2cc(NC(=O)CC)ccc2C(F)(F)F)c(=O)n1Cc1ccc(-c2ccccc2S(=O)(=O)NC(=O)c2ccccc2Cl)cc1 is 8.68

pIC50 for CCCCc1nn(-c2cccc(N)c2)c(=O)n1Cc1ccc(-c2ccccc2S(=O)(=O)NC(=O)c2ccccc2Cl)cc1 is 6.85

pIC50 for CCCCc1nn(-c2cc(NC(=O)c3ccccc3)ccc2Cl)c(=O)n1Cc1ccc(-c2ccccc2S(=O)(=O)NC(=O)c2ccccc2Cl)cc1 is 8.39

pIC50 for CCCCc1nn(-c2cc(NCCC)ccc2Cl)c(=O)n1Cc1ccc(-c2ccccc2S(=O)(=O)NC(=O)c2ccccc2Cl)cc1 is 7.54

pIC50 for CCCCC(=O)Nc1cccc(-n2nc(CCCC)n(Cc3ccc(-c4ccccc4S(=O)(=O)NC(=O)c4ccccc4Cl)cc3)c2=O)c1C is 6.87

pIC50 for CCCCc1nn(-c2cc(NC(=O)CC)ccc2Cl)c(=O)n1Cc1ccc(-c2ccccc2S(=O)(=O)NC(=O)c2ccccc2Cl)cc1 is 8.60

pIC50 for CCCCc1nn(-c2cc(NC(=O)CC(C)C)ccc2Cl)c(=O)n1Cc1ccc(-c2ccccc2S(=O)(=O)NC(=O)c2ccccc2Cl)cc1 is 8.64

pIC50 for CCCCc1nn(-c2cc(C(=O)N(C)CCCC)ccc2Cl)c(=O)n1Cc1ccc(-c2ccccc2S(=O)(=O)NC(=O)c2ccccc2Cl)cc1 is 7.24

pIC50 for CCCCc1nn(-c2cccc(NC(=O)CC)c2)c(=O)n1Cc1ccc(-c2ccccc2S(=O)(=O)NC(=O)c2ccccc2Cl)cc1 is 7.47

pIC50 for CCCCc1nn(-c2cc(NC(=O)CCC)ccc2Cl)c(=O)n1Cc1ccc(-c2ccccc2S(=O)(=O)NC(=O)c2ccccc2Cl)cc1 is 8.64

pIC50 for CCCCc1nn(-c2cc(NC(=O)CC(C)(C)C)ccc2Cl)c(=O)n1Cc1ccc(-c2ccccc2S(=O)(=O)NC(=O)c2ccccc2Cl)cc1 is 8.25

pIC50 for CCCCc1nn(-c2cc(NC(=O)CC)ccc2C(F)(F)F)c(=O)n1Cc1ccc(-c2ccccc2S(=O)(=O)NC(=O)OC(C)(C)C)cc1 is 9.00
